assay target: rat CB1 receptor (Rattus norvegicus)
Sequence (P20272 whole entry): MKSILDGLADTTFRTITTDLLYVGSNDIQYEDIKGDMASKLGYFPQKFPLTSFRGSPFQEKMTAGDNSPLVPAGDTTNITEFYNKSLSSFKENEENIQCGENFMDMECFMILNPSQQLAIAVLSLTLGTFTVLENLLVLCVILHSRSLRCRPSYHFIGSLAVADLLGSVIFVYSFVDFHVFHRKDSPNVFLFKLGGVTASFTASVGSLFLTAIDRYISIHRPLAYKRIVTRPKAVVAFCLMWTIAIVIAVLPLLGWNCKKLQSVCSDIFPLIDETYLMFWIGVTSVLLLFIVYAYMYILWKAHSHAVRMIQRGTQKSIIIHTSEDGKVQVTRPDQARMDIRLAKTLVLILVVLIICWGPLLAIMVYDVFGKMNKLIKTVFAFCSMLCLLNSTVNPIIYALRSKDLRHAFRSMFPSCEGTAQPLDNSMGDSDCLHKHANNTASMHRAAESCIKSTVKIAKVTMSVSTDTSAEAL
experimental protocol: Rat CB1 luciferase reporter gene test
test context: rat CHOCB1 reporter cell line, forskolin-stimulated luciferase activity
attribute measured: pIC50
Numbers only, as −log10 of the molar value.

Report value: pIC50, system: rat CB1 receptor (Rattus norvegicus), compound: `O=S(=O)(CCCC(F)(F)F)Oc1cccc(Oc2ccccc2OC(F)(F)F)c1`
9.09

----------
experimental protocol: Pharmacokinetics in the rat
Assay type: in vivo
test context: plasma, iv, i.v. infusion, dose 0.3 mg/kg, terminal half-life
attribute measured: half-life (h)
One number for each entry, in h.

Please report half-life for the following compound: O=S(=O)(CCCC(F)(F)F)Oc1cccc(Oc2cccc(C(F)(F)F)c2Cl)c1 [Example 22]
1.6

----------
experimental protocol: Pharmacokinetics in the rat
Assay type: in vivo
test context: plasma, iv, i.v. infusion, dose 0.3 mg/kg, apparent volume of distribution at steady state, read-out: VSS
attribute measured: Vd (L/kg)
Give bare numbers, in L/kg.

Please report Vd for the following molecule: `O=S(=O)(CCCC(F)(F)F)Oc1cccc(Oc2cccc(C(F)(F)F)c2Cl)c1`
4.12

----------
experimental protocol: Pharmacokinetics in the rat
Assay type: in vivo
test context: plasma, oral, dose 3 mg/kg, terminal half-life
attribute measured: half-life
Record the result as a number with its unit.

Please report half-life for the following compound: O=S(=O)(CCCC(F)(F)F)Oc1cccc(Oc2cccc(C(F)(F)F)c2Cl)c1 [Example 22]
2.36 h
